procedure summary: Ratio of drug uptake in midbrain to cerebellum in anesthetized cynomolgus monkey after 9.5 mins postinjection
Type: ADME, organism-based, Macaca fascicularis
condition summary: in vivo
measurement label: Ratio
Note: the reply should be a number with no unit written.

Here's what some known entries look like.
In [3]: df
Out[3]:
                                   compound  measurement_label  value_measured
0  O=C(OCC[18F])C1C2CCC(CC1c1cccc(/C=C\Br)c1)N2 (centres undefined)              Ratio             1.1
1  O=C(OCCC[18F])C1C2CCC(CC1c1cccc(/C=C\Br)c1)N2 (centres undefined)              Ratio             0.9
2  O=C(OCCC[18F])C1C2CCC(CC1c1cccc(/C=C\I)c1)N2 (centres undefined)              Ratio             0.9

Now let's try a different one.
Q: Provide only the value of recorded Ratio for O=C(OCC[18F])C1C2CCC(CC1c1cccc(/C=C\I)c1)N2 (centres undefined)
Ans: 1

###

Readings of Drug uptake for the listed compounds
Test system: Pons
procedure summary: Drug uptake in anesthetized cynomolgus monkey brain pons after 105 mins postinjection
Type: ADME, organism-based, Macaca fascicularis
condition summary: in vivo, 1.75 h
Simply state the number, no unit and no words.

Solved cases (3 shown):
>>> df
                                   compound  value_measured
0  O=C(OCC[18F])C1C2CCC(CC1c1cccc(/C=C\Br)c1)N2 (stereo not given)            4.34
1  O=C(OCC[18F])C1C2CCC(CC1c1ccc(/C=C\I)cc1)N2 (stereo not given)             3.4
2  O=C(OCCC[18F])C1C2CCC(CC1c1cccc(/C=C\Br)c1)N2 (stereo not given)            4.38

Q: Answer with the recorded Drug uptake for the compound listed here: O=C(OCCC[18F])C1C2CCC(CC1c1cccc(/C=C\I)c1)N2 (stereo not given)
Ans: 4.01

Q: State its Drug uptake: O=C(OCC[18F])C1C2CCC(CC1c1cccc(/C=C\I)c1)N2 (stereo not given)
Ans: 3.01

###

Drug uptake reference
System: Caudate
procedure summary: Drug uptake in anesthetized cynomolgus monkey brain caudate after 165 mins postinjection
Assay type: ADME, organism-based, Macaca fascicularis, Caudate nucleus
condition summary: in vivo, 2.75 h
Answer with a number only.

>>> df
                                   compound  value_measured
0  O=C(OCC[18F])C1C2CCC(CC1c1cccc(/C=C\Br)c1)N2 (stereo not given)            3.44
1  O=C(OCC[18F])C1C2CCC(CC1c1cccc(/C=C\I)c1)N2 (stereo not given)            2.56
2  O=C(OCC[18F])C1C2CCC(CC1c1ccc(/C=C\I)cc1)N2 (stereo not given)            2.99

Q: Tell me Drug uptake of O=C(OCCC[18F])C1C2CCC(CC1c1cccc(/C=C\Br)c1)N2 (stereo not given) when tested on Caudate.
Ans: 4.01

Q: # return Drug uptake of O=C(OCCC[18F])C1C2CCC(CC1c1cccc(/C=C\I)c1)N2 (stereo not given) (system: Caudate)
Ans: 3.04

###

Drug uptake overview
Tested on: Pons
procedure summary: Drug uptake in anesthetized cynomolgus monkey brain pons after 145 mins postinjection
Format: ADME, organism-based, Macaca fascicularis
condition summary: in vivo

Illustrative cases are given below, each with its answer.
>>> print(df.to_string())
                                   compound  value_measured
0  O=C(OCC[18F])C1C2CCC(CC1c1ccc(/C=C\I)cc1)N2 (stereo not given)            3.51
1  O=C(OCCC[18F])C1C2CCC(CC1c1cccc(/C=C\I)c1)N2 (stereo not given)            3.74
2  O=C(OCC[18F])C1C2CCC(CC1c1cccc(/C=C\I)c1)N2 (stereo not given)            2.57
3  O=C(OCCC[18F])C1C2CCC(CC1c1cccc(/C=C\Br)c1)N2 (stereo not given)            4.35

Q: State its Drug uptake: O=C(OCC[18F])C1C2CCC(CC1c1cccc(/C=C\Br)c1)N2 (stereo not given)
Ans: 4.16

Entry source: ChEMBL document CHEMBL1151757
